Assay: Aggregation of immunoconjugates by analytical size exclusion chromatography
Type: physicochemical
Settings: conjugate with trastuzumab (TBS); Superdex 200 5/150 GL run in PBS
quantity: Aggregation % (%)

compound	quantity	units-label	value-observed
CNC(=O)N(CC[C@H]1COCCN1)[C@@H](c1nc(-c2cc(F)ccc2F)cn1Cc1ccccc1)C(C)(C)C [Compound 4]	Aggregation %	%	72.9
C[C@@H](CN)NC(=O)N(C[C@@H]1CNC[C@@H]1F)[C@@H](c1nc(-c2cc(F)ccc2F)cn1Cc1ccccc1)C1CCOCC1 [Compound 19]	Aggregation %	%	74.6
C[C@H](O)C(=O)N(CC[C@@H](C)N)[C@@H](c1nc(-c2cc(F)ccc2F)cn1Cc1ccccc1)C(C)(C)C [Compound 35]	Aggregation %	%	44.3
O=C(CCS)N(C[C@@H]1CNC[C@@H]1F)[C@@H](c1nc(-c2cc(F)ccc2F)cn1Cc1ccccc1)C1CCOCC1 [Compound 15]	Aggregation %	%	3.5
COC[C@@H](N)CCN(C(=O)[C@H](C)O)[C@@H](c1nc(-c2cc(F)ccc2F)cn1Cc1ccccc1)C(C)(C)C [Compound 60]	Aggregation %	%	71.7
C[C@@H]1CN(C(=O)N(CCCN)[C@@H](c2nc(-c3cc(F)ccc3F)nn2Cc2ccccc2)C(C)(C)C)C[C@H](C)O1 [Compound 3]	Aggregation %	%	52.5
C[C@H](O)C(=O)N(CC[C@H](N)CF)[C@@H](c1nc(-c2cc(F)cc(F)c2F)cn1Cc1ccccc1)C(C)(C)C [Compound 62]	Aggregation %	%	48.7

====

Test: Aggregation of immunoconjugates by analytical size exclusion chromatography
Type: physicochemical
Settings: conjugate with trastuzumab (TBS); Superdex 200 5/150 GL run in PBS
quantity: Aggregation % (%)

compound	quantity	value-observed
O=C([C@@H]1CNCCO1)N(C[C@@H]1CNC[C@@H]1F)[C@@H](c1nc(-c2cc(F)ccc2F)cn1Cc1ccccc1)C1CCOCC1 [Compound 70]	Aggregation %	16.9
C[C@@H]1CN(C(=O)N(CC[C@H](N)CF)[C@@H](c2nc(-c3cc(F)cc(F)c3)nn2Cc2ccccc2)C(C)(C)C)C[C@H](C)O1 [Compound 52]	Aggregation %	47.4
CC(C)(C)[C@H](c1nc(-c2cc(F)ccc2F)cn1Cc1ccccc1)N(CC[C@H]1COCCN1)C(=O)c1cccnc1 [Compound 36]	Aggregation %	40
CC(C)(C)[C@@H](NC[C@@H]1CNC[C@@H]1F)c1nc(-c2cc(F)ccc2F)nn1Cc1cccc(F)c1 [Compound 33]	Aggregation %	29.8
C[C@H](O)C(=O)N(CCCN)[C@@H](c1nc(-c2cc(F)ccc2F)nn1Cc1ccccc1)C(C)(C)C [Compound 7]	Aggregation %	44.4
CC(C)(C)[C@H](c1nc(-c2cc(F)ccc2F)nn1Cc1ccccc1)N(CC[C@@H](N)CF)C(=O)N1CCSCC1 [Compound 43]	Aggregation %	7.7

====

Measured Aggregation % of individual entries
Assay: Aggregation of immunoconjugates by analytical size exclusion chromatography
Format: physicochemical
Conditions: conjugate with trastuzumab (TBS); Superdex 200 5/150 GL run in PBS
quantity: Aggregation % (%)

molecule	quantity	value-observed
CC(C)(C)OC(=O)N1C[C@@H](CN(C(=O)CI)[C@@H](c2nc(-c3cc(F)ccc3F)cn2Cc2cccc(F)c2)C(C)(C)C)[C@@H](F)C1 [Compound 31]	Aggregation %	10.6
O=C(c1ccccn1)N(C[C@@H]1CN[C@H](CF)C1)[C@@H](c1nc(-c2cc(F)ccc2F)cn1Cc1ccccc1)C1CCOCC1 [Compound 65]	Aggregation %	11.4
COC(=O)N(C[C@@H](F)CN)[C@@H](c1nc(-c2cc(F)ccc2F)cn1Cc1ccccc1)C(C)(C)C [Compound 41]	Aggregation %	23.8
CC(C)(C)[C@H](c1nc(-c2cc(F)ccc2F)cn1Cc1ccccc1)N(CC[C@@H]1COCCN1)C(=O)CO [Compound 6]	Aggregation %	67.2
CC(C)(C)[C@@H](NC(=O)c1csc(CN)n1)c1nc(-c2cc(F)ccc2F)cn1Cc1ccccc1 [Compound 45]	Aggregation %	22
O=C(NC[C@H](O)CO)N(C[C@@H]1CNC[C@@H]1F)[C@@H](c1nc(-c2cc(F)ccc2F)cn1Cc1ccccc1)C1CCOCC1 [Compound 74]	Aggregation %	39.1
CC(C)(C)[C@H](c1nc(-c2cc(F)ccc2F)cn1Cc1ccccc1)N(CC[C@H](N)CF)C(=O)CO [Compound 2]	Aggregation %	43.8

====

Measured Aggregation % of individual entries
Assay: Aggregation of immunoconjugates by analytical size exclusion chromatography
Assay type: physicochemical
Details: conjugate with trastuzumab (TBS); Superdex 200 5/150 GL run in PBS

chemical-smiles	units-label	Aggregation %
CC(C)(C)[C@H](c1nc(-c2cc(F)ccc2F)cn1Cc1ccccc1)N(CC[C@H](N)CF)C(=O)CO[C@@H]1O[C@H](C(=O)O)[C@@H](O)[C@H](O)[C@H]1O	%	11.5
NCCCCCCSCC(=O)N(C[C@@H]1CNC[C@@H]1F)[C@@H](c1nc(-c2cc(F)ccc2F)cn1Cc1ccccc1)C1CCOCC1	%	57
CC(C)(C)[C@H](c1nc(-c2cc(F)ccc2F)cn1Cc1ccccc1)N(CC[C@H]1COCCN1)C(=O)N1CCOCC1	%	53.2

====

Experiment: Average drug loading (DAR, drug to antibody ratio) from LC/MS of reduced, deglycosylated conjugates
Conditions: conjugate with trastuzumab (TBS); average number of payload molecules per antibody
Response field label: string, one of YES (DAR strictly below 5) or NO.

chemical-smiles	group-label
CC(C)(C)[C@H](c1nc(-c2cc(F)ccc2F)nn1Cc1ccccc1)N(CCCN)C(=O)N1CCN(S(C)(=O)=O)CC1	YES
CC(C)(C)[C@H](c1nc(-c2cc(F)ccc2F)cn1Cc1ccccc1)N(CC[C@H](N)CF)C(=O)CO	YES
C[C@H](O)C(=O)N(CC[C@H](N)CF)[C@@H](c1nc(-c2cc(F)cc(F)c2F)cn1Cc1ccccc1)C(C)(C)C	YES
O=C(NC[C@@H](O)CO)N(C[C@@H]1CNC[C@@H]1F)[C@@H](c1nc(-c2cc(F)ccc2F)cn1Cc1ccccc1)C1CCOCC1	YES
C[C@H](O)C(=O)N(C[C@@H]1CNC[C@@H]1F)[C@@H](c1nc(-c2cc(F)ccc2F)cn1Cc1ccccc1)C1CCS(=O)(=O)CC1	NO
CC(C)(C)[C@H](c1nc(-c2cc(F)ccc2F)nn1Cc1ccccc1)N(CCCN)C(=O)N1CCOCC1	YES
O=C(CI)N(C[C@@H]1CNC[C@@H]1F)[C@@H](c1nc(-c2cc(F)ccc2F)cn1Cc1ccccc1)C1CCOCC1	YES
C[C@H](O)C(=O)N(C[C@@H]1CNC[C@@H]1F)[C@@H](c1nc(-c2cc(F)ccc2F)cn1Cc1cccc(F)c1)C(C)(C)C	YES
CSCCC(=O)N(C[C@@H]1CNC[C@@H]1F)[C@@H](c1nc(-c2cc(F)ccc2F)cn1Cc1cccc(F)c1)C(C)(C)C	NO
CC(C)(C)[C@H](c1nc(-c2cc(F)ccc2F)cn1Cc1ccccc1)N(CC[C@H](N)CF)C(=O)N1CCN(S(C)(=O)=O)CC1	NO
C[C@H](O)C(=O)N(CCCN)[C@@H](c1nc(-c2cc(F)ccc2F)nn1Cc1ccccc1)C(C)(C)C	YES

====

Experiment: Average drug loading (DAR, drug to antibody ratio) from LC/MS of reduced, deglycosylated conjugates
Settings: conjugate with trastuzumab (TBS); average number of payload molecules per antibody
Response field label: string, one of MET (DAR strictly below 3) or NOT MET.

compound	group-label
CCOC(C)(C)[C@H](c1nc(-c2cc(F)ccc2F)cn1Cc1cccc(F)c1)N(C[C@@H]1CNC[C@@H]1F)C(=O)[C@H](C)O [Compound 75]	MET
CC(C)(C)[C@H](c1nc(-c2cc(F)ccc2F)nn1Cc1ccccc1)N(CCCN)C(=O)CO [Compound 50]	MET
O=C(CCS)N(C[C@@H]1CNC[C@@H]1F)[C@@H](c1nc(-c2cc(F)ccc2F)cn1Cc1ccccc1)C1CCOCC1 [Compound 15]	NOT MET
CC(C)(C)[C@H](c1nc(-c2cc(F)ccc2F)cn1Cc1ccccc1)N(CC[C@H]1COCCN1)C(=O)c1cccnc1 [Compound 36]	MET
COC(C)(C)[C@H](c1nc(-c2cc(Cl)ccc2F)cn1Cc1cccc(F)c1)N(C[C@@H]1CN[C@H](CF)C1)C(=O)[C@@H]1CCCO1 [Compound 13]	NOT MET
O=C([C@H]1CNCCO1)N(C[C@@H]1CNC[C@@H]1F)[C@@H](c1nc(-c2cc(F)ccc2F)cn1Cc1ccccc1)C1CCOCC1 [Compound 69]	NOT MET
CC(C)(C)[C@H](c1nc(-c2cc(F)ccc2F)cn1Cc1ccccc1)N(CCC1(N)CC1)C(=O)[C@@H]1CCCO1 [Compound 30]	NOT MET
CC(C)(C)[C@@H](NC[C@@H]1CNC[C@@H]1F)c1nc(-c2cc(F)ccc2F)nn1Cc1cccc(F)c1 [Compound 33]	NOT MET
CC(C)(C)[C@H](c1nc(-c2cc(F)ccc2F)nn1Cc1ccccc1)N(CCCN)C(=O)c1cccnc1 [Compound 64]	MET
CC(C)(C)[C@H](c1nc(-c2cc(F)ccc2F)cn1Cc1ccccc1)N(C[C@@H](F)CN)C(=O)N1CCN(S(C)(=O)=O)CC1 [Compound 21]	NOT MET
C[C@H](O)C(=O)N(CCCN)[C@@H](c1nc(-c2cc(F)ccc2F)cn1Cc1ccccc1)C(C)(C)C [Compound 20]	NOT MET
C[C@@H]1CN(C(=O)N(CCCN)[C@@H](c2nc(-c3cc(F)ccc3F)nn2Cc2ccccc2)C(C)(C)C)C[C@H](C)O1 [Compound 3]	NOT MET
